We begin with a simple list: items and their reported pKd.
- assayed_system: T1, Recombinant in-house Human FcRn protein (human, UniProt P55899 24-297; P61769 21-119, limits assumed)
- T1 construct: also called huFCRN; HuFcRn
- T1 sequence (P55899 24-297 limits assumed, chain 1 of 2): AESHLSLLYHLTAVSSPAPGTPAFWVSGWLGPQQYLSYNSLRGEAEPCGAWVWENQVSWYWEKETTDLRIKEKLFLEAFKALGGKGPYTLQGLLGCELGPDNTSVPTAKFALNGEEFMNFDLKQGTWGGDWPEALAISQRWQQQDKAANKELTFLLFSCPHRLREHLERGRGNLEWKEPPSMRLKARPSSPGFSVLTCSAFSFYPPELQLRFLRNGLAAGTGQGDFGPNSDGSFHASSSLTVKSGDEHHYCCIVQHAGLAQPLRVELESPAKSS
- T1 sequence (P61769 21-119 limits assumed, chain 2 of 2): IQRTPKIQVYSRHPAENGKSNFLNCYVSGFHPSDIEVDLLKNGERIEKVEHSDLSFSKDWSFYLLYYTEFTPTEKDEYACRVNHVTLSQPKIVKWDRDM
- test: SPR, pH 7.4
A value of pKd is the negative decimal logarithm of a concentration given in moles per litre.

Guide cases for pKd, answers given:
binder: Fc Fragment 16 (other, Human IgG1 Fc fragment; substitutions already in the entry) DKTHTCPPCPAPELLGGPSVFLFPPKPKDTLYITREPEVTCVVVDVSHEDPEVKFNWYVDGVEVHNAKTKPREEQYNSTYRVVSVLTVDHQDWLNGKEYKCKVSNKALPAPIEKTISKAKGQPREPQVYTLPPSRDELTKNQVSLTCLVKGFYPSDIAVEWESNGQPENNYKTTPPVLDSDGSFFLYSKLTVDKSRWQQGNVFSCSVMHEALKYHYTQKSLSLSPG
reading: 6.43

binder: Fc Fragment 3 (other, Human IgG1 Fc fragment; substitutions already in the entry; also called Fc197) DKTHTCPPCPAPELLGGPSVFLFPPKPKDTLYITREPEVTCVVVDVSHEDPEVKFNWYVDGVEVHNAKTKPREEQYNSTYRVVSVLTVLHQDWLNGKEYKCKVSNKALPAPIEKTISKAKGQPREPQVYTLPPSRDELTKNQVSLTCLVKGFYPSDIAVEWESNGQPENNYKTTPPVLDSDGSFFLYSKLTVDKSRWQQGNVFSCSVMHEALKYHYTQKSLSLSPG
reading: 6.68

binder: Fc Fragment 11 (other, Human IgG1 Fc fragment; substitutions already in the entry) DKTHTCPPCPAPELLGGPSVFLFPPKPKDTLYITREPEVTCVVVDVSHEDPEVKFNWYVDGVEVHNAKTKPREEQYNSTYRVVSVLTVLHQDWLNGKEYKCKVSNKALPAPIEKTISKAKGQPREPQVYTLPPSRDELTKNQVSLTCLVKGFYPSDIAVEWESNGQPENNYKTTPPVLDSDGSFFLYSKLTVDKSRWQQGNVFSCSVLHEALHFHYTQKSLSLSPG
reading: 6.57

binder: Fc Fragment 14 (other, Human IgG1 Fc fragment; substitutions already in the entry) DKTHTCPPCPAPELLGGPSVFLFPPKPKDTLYITREPEVTCVVVDVSHEDPEVKFNWYVDGVEVHNAKTKPREEQYNSTYRVVSVLTVLHQDWLNGKEYKCKVSNKALPAPIEKTISKAKGQPREPQVYTLPPSRDELTKNQVSLTCLVKGFYPSDIAVEWESNGQPENNYKTTPPVLDSDGSFFLYSKLTVDKSRWQQGNVFSCSVLHEALRFHYTQKSLSLSPG
reading: 6.60

binder: Fc Fragment 18 (other, Human IgG1 Fc fragment; substitutions already in the entry) DKTHTCPPCPAPELLGGPSVFLFPPKPKDTLYITREPEVTCVVVDVSHEDPEVKFNWYVDGVEVHNAKTKPREEQYNSTYRVVSVLTVDHQDWLNGKEYKCKVSNKALPAPIEKTISKAKGQPREPQVYTLPPSRDELTKNQVSLTCLVKGFYPSDIAVEWESNGQPENNYKTTPPVLDSDGSFFLYSKLTVDKSRWQQGNVFSCSVLHEALKYHYTQKSLSLSPG
reading: 6.58

Attention now turns to another entry.
Quick one: pKd for Fc Fragment 17 (other, Human IgG1 Fc fragment; substitutions already in the entry) DKTHTCPPCPAPELLGGPSVFLFPPKPKDTLYITREPEVTCVVVDVSHEDPEVKFNWYVDGVEVHNAKTKPREEQYNSTYRVVSVLTVDHQDWLNGKEYKCKVSNKALPAPIEKTISKAKGQPREPQVYTLPPSRDELTKNQVSLTCLVKGFYPSDIAVEWESNGQPENNYKTTPPVLDSDGSFFLYSKLTVDKSRWQQGNVFSCSVLHEALKFHYTQKSLSLSPG ?
6.53
